Values compiled from patent EP4768505A1.

# Assayed target: Human CD79B Protein, His Tag (MALS verified), Cat. No. #CDB-H52H3-1mg, ACRO (human) (UniProt P40259)
# Sequence (P40259 29-159 limits assumed): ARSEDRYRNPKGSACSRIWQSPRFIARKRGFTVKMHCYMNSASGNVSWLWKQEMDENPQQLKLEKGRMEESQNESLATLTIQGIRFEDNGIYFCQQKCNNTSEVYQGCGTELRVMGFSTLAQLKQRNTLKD
# Method summary: ELISA on coated antigen, anti-myc detection; 2ng antibody added
Assay endpoint: OD450 nm (OD450)
All answers are understood in OD450, so give the number only.

Task: Suppose we examine the binder anti-CD79B single-domain antibody JYB11 (VHH, Alpaca VHH from a phage library; ELISA detected with an anti-myc antibody; a myc tag is not described; not shown: His-tag protein at the C-terminal end) VHH: DVQLQESGGGLVQPGGSLSLSCAASMSSPSLWVRAWHRQAPGKQRELVAAINSDGQTMYADSVKGRFTISRDNAKTLVSLQMDSLKPEDTAVYYCNVVTPRGQQYWGQGTQVTVSS ; what OD450 nm value has been reported?
Result: 0.0528

Task: Same question, anti-CD79B single-domain antibody JYB8 (VHH, not shown: small tags and cut ends) VHH: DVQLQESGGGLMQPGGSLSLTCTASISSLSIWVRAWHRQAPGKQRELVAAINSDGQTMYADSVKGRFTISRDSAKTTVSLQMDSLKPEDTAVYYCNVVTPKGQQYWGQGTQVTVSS this time
Result: 0.06
